target: 5-HT1A receptor (Homo sapiens); construct: host or cells: CHO-K1 (co-expressing Ga15); experiment: cAMP-Glo assay of 5-HT1A receptor modulation, CHO-K1/5-HT1A/Ga15 (+5-HT1A) vs CHO-K1/Ga15 (−5-HT1A) cells; assay type: cell-based; conditions: +5-HT1A vs −5-HT1A CHO-K1 cells; 4 μM forskolin; increasing ligand concentration
Sequence (P08908 whole entry): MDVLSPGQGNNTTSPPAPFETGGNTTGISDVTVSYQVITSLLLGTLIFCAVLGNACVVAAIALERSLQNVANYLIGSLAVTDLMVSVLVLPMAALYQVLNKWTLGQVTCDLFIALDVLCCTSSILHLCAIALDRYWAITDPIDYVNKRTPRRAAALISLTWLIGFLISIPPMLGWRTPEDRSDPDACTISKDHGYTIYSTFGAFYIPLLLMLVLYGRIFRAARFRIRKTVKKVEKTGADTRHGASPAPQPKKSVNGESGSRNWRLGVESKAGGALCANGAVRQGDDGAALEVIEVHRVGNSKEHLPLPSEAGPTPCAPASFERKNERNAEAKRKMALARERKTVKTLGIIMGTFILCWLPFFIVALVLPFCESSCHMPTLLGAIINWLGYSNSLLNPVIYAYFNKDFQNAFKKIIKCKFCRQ
MEASURED_ATTRIBUTE: 5-HT1A receptor modulation (reduction of forskolin-induced cAMP)

COMPOUND	OBSERVED_MEASUREMENT
NCCc1c[nH]c2ccc(O)cc12 [serotonin, reference compound]	reduction in cAMP levels
CN(C)CCc1c[nH]c2cccc(O)c12 [psilocin, reference compound]	reduction in cAMP levels
